- ASSAYED_SYSTEM: T1, cynomolgus serum albumin (cynomolgus)
- T1 construct: also called CSA; cyno serum albumin
- T1 sequence (A2V9Z4 25-608): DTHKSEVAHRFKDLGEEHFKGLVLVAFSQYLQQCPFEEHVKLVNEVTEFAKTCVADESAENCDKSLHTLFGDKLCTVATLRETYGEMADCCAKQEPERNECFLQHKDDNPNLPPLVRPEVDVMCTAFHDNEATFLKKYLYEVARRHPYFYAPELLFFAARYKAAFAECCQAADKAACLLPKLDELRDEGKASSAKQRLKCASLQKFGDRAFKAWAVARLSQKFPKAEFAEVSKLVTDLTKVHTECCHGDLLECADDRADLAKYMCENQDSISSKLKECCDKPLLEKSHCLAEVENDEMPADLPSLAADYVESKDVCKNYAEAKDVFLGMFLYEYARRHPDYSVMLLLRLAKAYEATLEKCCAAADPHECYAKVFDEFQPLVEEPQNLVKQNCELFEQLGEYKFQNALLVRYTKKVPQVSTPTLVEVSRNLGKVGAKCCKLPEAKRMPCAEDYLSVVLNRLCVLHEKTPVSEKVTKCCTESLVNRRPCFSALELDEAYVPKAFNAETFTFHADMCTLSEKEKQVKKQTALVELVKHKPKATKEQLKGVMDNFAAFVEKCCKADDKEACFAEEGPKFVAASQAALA
- PROTOCOL_SUMMARY: binding ELISA on coated albumin, pH 6.0, panel 'CSA Binding at pH 6.0'
For each record, write down the corresponding EC50 (read off the curve).

EC50 (read off the curve) recorded for this binder, HSA-18 (designed binder, also called HSA-18 monomer) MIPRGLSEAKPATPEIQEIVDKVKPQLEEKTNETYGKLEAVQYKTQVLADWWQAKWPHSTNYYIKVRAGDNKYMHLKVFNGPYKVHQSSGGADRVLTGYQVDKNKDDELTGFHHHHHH , is ~0.1 nM

Record HSA-31 (designed binder) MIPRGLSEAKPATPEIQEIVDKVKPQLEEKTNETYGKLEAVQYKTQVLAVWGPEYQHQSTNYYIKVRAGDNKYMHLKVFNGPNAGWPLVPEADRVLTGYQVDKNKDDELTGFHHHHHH , field EC50 (read off the curve): ~0.6 nM

Note to self: EC50 (read off the curve) recorded for HSA-41 (designed binder, also called HSA-41 parent; HSA-41 AH parent) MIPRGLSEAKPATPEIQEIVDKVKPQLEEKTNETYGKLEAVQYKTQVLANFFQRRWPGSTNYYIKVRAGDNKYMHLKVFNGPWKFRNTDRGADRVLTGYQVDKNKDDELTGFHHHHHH was ~3 nM

# EC50 (read off the curve) of HSA-20 (designed binder) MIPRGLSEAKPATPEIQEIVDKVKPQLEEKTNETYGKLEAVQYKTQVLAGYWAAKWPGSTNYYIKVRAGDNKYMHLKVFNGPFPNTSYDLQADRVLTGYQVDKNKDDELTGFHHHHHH = ~20 nM
